# test target: PAD2 (Homo sapiens)
# Construct: made in house
# Sequence (Q9Y2J8 whole entry): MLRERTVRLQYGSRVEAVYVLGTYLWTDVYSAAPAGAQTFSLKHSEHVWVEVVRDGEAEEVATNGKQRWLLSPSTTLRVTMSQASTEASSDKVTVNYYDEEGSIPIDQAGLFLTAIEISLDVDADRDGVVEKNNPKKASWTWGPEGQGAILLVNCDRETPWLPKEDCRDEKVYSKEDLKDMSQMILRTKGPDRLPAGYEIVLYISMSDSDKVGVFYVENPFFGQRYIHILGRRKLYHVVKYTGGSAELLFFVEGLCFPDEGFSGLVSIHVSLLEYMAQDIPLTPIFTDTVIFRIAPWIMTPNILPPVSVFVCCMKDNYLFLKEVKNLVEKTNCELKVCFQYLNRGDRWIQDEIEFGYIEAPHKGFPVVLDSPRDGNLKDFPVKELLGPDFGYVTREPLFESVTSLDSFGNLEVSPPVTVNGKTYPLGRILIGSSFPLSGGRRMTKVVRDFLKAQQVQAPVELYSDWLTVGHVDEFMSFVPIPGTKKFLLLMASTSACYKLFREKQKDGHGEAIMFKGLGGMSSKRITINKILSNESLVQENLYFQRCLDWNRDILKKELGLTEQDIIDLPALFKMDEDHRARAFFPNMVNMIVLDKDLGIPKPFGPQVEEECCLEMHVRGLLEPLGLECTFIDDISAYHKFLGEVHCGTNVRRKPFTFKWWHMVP
# assay remarks: Inactivation kinetics, PAD2
# Format: biochemical
# particulars: a: single kobs determined; b: from a linear fit; other footnotes: from kinact and KI
Answer 0 if kinact/KI is under 300 M⁻¹ s⁻¹, and 1 if it is 300 M⁻¹ s⁻¹ or more.

Does the compound CCn1c([C@H](CCCNC(=N)CCl)NC(=O)c2ccccc2C(=O)OC(C)(C)C)nc2ccccc21 have recorded kinact/KI that is 300 M⁻¹ s⁻¹ or more?
0

What would you report for CCOc1cccc2c1nc([C@H](CCCNC(=N)CF)NC(=O)c1cccc3c1C(=O)N(CC)C3)n2C ?
1

Likewise for CC(C)n1c([C@H](CCCNC(=N)CCl)NC(=O)c2cccc3c2C(=O)NC3)nc2ccccc21 ?
0

Next up: N=C(CF)NCCC[C@H](NC(=O)c1ccc2ccccc2c1)c1nc2ccccc2[nH]1
0

Next entry: CCN1Cc2cccc(C(=O)N[C@@H](CCCNC(=N)CCl)c3nc4ccccc4n3C)c2C1=O
1

One more compound: CCN1Cc2cccc(C(=O)N[C@@H](CCCNC(=N)CCl)c3nc4c(OC)cccc4[nH]3)c2C1=O
1

###

# test target: PAD3 (Homo sapiens)
# Construct: made in house
# assay remarks: Inactivation kinetics, PAD3
# Assay type: biochemical
# particulars: a: single kobs determined
Param threshold (80 M⁻¹ s⁻¹) applies to kinact/KI; output y when value >= threshold, n when value < threshold.

Kindly determine if kinact/KI recorded for COc1ccc2[nH]c([C@H](CCCNC(=N)CF)NC(=O)c3cccc4c3C(=O)NC4)nc2c1 [Compound 7s] is above or exactly 80 M⁻¹ s⁻¹.
n

And the next one, COc1cccc2c1nc([C@H](CCCNC(=N)CF)NC(=O)c1cccc3c1C(=O)NC3)n2C [Compound 7k] ?
n

Entry to check: Cn1c([C@H](CCCNC(=N)CF)NC(=O)c2cccc3c2C(=O)NC3)nc2ccccc21 [Compound 7c]
n

Cn1c([C@H](CCCNC(=N)CCl)NC(=O)c2ccc(-c3ccccc3)cc2)nc2ccccc21 [Compound 5h] ?
y

Okay, and CC(C)n1c([C@H](CCCNC(=N)CF)NC(=O)c2ccccc2C(=O)OC(C)(C)C)nc2ccccc21 [Compound 9e] ?
n

###

# test target: PAD1 (Homo sapiens, UniProt Q9ULC6)
# Construct: made in house
# assay remarks: Inactivation kinetics, PAD1
# Type: biochemical
# particulars: a: single kobs determined; b: from a linear fit
observation type: log10(kinact/KI) (log10 of the value in M⁻¹ s⁻¹)
All values: log10 kinact/KI [M⁻¹ s⁻¹].

Below, 4 compounds whose answers are already recorded.
compound="COc1ccc2c(c1)nc([C@H](CCCNC(=N)CCl)NC(=O)c1cccc3c1C(=O)NC3)n2C [Compound 7p]" test_target="PAD1 (Homo sapiens, UniProt Q9ULC6)" observation_type=log10(kinact/KI) val=3.34
compound="COc1cccc2c1nc([C@H](CCCNC(=N)CF)NC(=O)c1cccc3c1C(=O)N(C)C3)n2C [8a′]" test_target="PAD1 (Homo sapiens, UniProt Q9ULC6)" observation_type=log10(kinact/KI) val=3.00
compound="CCN1Cc2cccc(C(=O)N[C@@H](CCCNC(=N)CCl)c3nc4c(OC)cccc4[nH]3)c2C1=O [Compound 8j]" test_target="PAD1 (Homo sapiens, UniProt Q9ULC6)" observation_type=log10(kinact/KI) val=3.18
compound="Cn1c([C@H](CCCNC(=N)CCl)NC(=O)c2ccccc2C(=O)O)nc2ccccc21 [Compound 6d]" test_target="PAD1 (Homo sapiens, UniProt Q9ULC6)" observation_type=log10(kinact/KI) val=2.73

Requested field: log10(kinact/KI). Item: CCOc1cccc2c1nc([C@H](CCCNC(=N)CCl)NC(=O)c1cccc3c1C(=O)N(CC)C3)n2C [Compound 8n]
2.48

Try this compound next: CCn1c([C@H](CCCNC(=N)CF)NC(=O)c2ccccc2C(=O)O)nc2ccccc21 [Compound 6e]
2.81

Same read-out for COc1cccc2c1nc([C@H](CCCNC(=N)CCl)NC(=O)c1cccc3c1C(=O)N(C1CC1)C3)n2C [Compound 8t] ?
2.83

###

# test target: PAD3 (Homo sapiens, UniProt Q9ULW8)
# Construct: made in house
# Sequence (Q9ULW8 whole entry): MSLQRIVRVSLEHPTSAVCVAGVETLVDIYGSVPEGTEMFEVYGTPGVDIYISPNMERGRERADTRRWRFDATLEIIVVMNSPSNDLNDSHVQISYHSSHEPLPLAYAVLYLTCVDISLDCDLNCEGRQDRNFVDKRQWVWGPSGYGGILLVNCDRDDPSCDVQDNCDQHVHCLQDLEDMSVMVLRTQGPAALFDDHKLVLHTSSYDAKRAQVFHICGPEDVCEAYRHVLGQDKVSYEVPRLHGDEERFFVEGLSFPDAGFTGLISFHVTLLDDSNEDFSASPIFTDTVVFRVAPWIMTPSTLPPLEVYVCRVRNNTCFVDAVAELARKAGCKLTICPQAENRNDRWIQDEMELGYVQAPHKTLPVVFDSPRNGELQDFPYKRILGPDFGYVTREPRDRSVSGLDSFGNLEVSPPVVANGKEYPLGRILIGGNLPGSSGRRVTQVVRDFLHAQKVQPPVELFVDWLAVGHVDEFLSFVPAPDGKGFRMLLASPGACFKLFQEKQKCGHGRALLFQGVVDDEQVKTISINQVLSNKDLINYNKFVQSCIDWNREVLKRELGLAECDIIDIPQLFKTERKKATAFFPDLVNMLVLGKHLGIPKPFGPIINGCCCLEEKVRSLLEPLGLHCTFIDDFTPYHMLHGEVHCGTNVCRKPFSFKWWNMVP
# assay remarks: Inactivation kinetics, PAD3
# Type: biochemical
# particulars: kinact/KI relative to least inhibited isozyme (1.0)
Listing of recorded Fold PAD3 Selectivity by entry.

Record excerpt, results attached:
chemical_structure=N=C(CF)NCCC[C@H](NC(=O)c1ccc2ccccc2c1)c1nc2ccccc2[nH]1 val="3.6 fold"
chemical_structure=N=C(CF)NCCC[C@H](NC(=O)c1cccc2c1C(=O)NC2)c1nc2ccccc2[nH]1 val="1.0 fold"

Bench note: what Fold PAD3 Selectivity did CCn1c([C@H](CCCNC(=N)CF)NC(=O)c2cccc3c2C(=O)NC3)nc2c(OC)cccc21 show?
1.0 fold

Check CCOc1cccc2c1nc([C@H](CCCNC(=N)CF)NC(=O)c1cccc3c1C(=O)NC3)n2C too.
1.2 fold

###

Some compounds, each annotated with its measured log10(kinact/KI).
# test target: PAD1 (Homo sapiens, UniProt Q9ULC6)
# Construct: made in house
# assay remarks: Inactivation kinetics, PAD1
# Assay type: biochemical
# particulars: a: single kobs determined; b: from a linear fit
Base-10 log of kinact/KI, unit M⁻¹ s⁻¹.

Below are worked cases with known answers.
chemical_structure=CCN1Cc2cccc(C(=O)N[C@@H](CCCNC(=N)CCl)c3nc4ccccc4[nH]3)c2C1=O test_target="PAD1 (Homo sapiens, UniProt Q9ULC6)" observation_type=log10(kinact/KI) val=3.40
chemical_structure=CCn1c([C@H](CCCNC(=N)CCl)NC(=O)c2cccc3c2C(=O)NC3)nc2c(OC)cccc21 test_target="PAD1 (Homo sapiens, UniProt Q9ULC6)" observation_type=log10(kinact/KI) val=3.25
chemical_structure=CC(C)n1c([C@H](CCCNC(=N)CCl)NC(=O)c2ccccc2C(=O)OC(C)(C)C)nc2ccccc21 test_target="PAD1 (Homo sapiens, UniProt Q9ULC6)" observation_type=log10(kinact/KI) val=1.75
chemical_structure=COc1cccc2c1nc([C@H](CCCNC(=N)CCl)NC(=O)c1ccccc1C(=O)O)n2C test_target="PAD1 (Homo sapiens, UniProt Q9ULC6)" observation_type=log10(kinact/KI) val=3.05
chemical_structure=N=C(CCl)NCCC[C@H](NC(=O)c1cccc2c1C(=O)NC2)c1nc2ccccc2[nH]1 test_target="PAD1 (Homo sapiens, UniProt Q9ULC6)" observation_type=log10(kinact/KI) val=3.48

If you can, please state the reported log10(kinact/KI) value of CCn1c([C@H](CCCNC(=N)CF)NC(=O)c2ccc(-c3ccccc3)cc2)nc2ccccc21 .
1.10

###

# test target: PAD1 (Homo sapiens, UniProt Q9ULC6)
# Construct: made in house
# Sequence (Q9ULC6 1-663): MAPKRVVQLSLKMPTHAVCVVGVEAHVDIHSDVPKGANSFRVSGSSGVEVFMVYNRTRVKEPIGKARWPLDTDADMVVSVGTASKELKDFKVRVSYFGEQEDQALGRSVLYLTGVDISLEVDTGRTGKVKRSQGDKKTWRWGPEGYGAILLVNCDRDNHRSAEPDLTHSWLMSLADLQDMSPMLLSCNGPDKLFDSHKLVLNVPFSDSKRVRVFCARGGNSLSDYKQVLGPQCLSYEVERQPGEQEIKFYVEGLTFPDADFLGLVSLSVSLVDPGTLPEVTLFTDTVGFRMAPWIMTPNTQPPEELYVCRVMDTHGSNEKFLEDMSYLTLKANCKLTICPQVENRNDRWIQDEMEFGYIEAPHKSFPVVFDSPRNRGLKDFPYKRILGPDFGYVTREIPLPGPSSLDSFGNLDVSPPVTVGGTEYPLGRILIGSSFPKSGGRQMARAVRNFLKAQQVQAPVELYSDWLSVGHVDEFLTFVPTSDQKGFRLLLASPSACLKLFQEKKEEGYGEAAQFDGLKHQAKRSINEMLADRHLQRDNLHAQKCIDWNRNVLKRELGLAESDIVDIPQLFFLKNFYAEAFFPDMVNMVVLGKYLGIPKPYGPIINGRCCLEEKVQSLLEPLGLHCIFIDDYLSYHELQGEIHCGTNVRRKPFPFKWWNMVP
# assay remarks: Inactivation kinetics, PAD1
# Assay type: biochemical
# particulars: kinact/KI relative to least inhibited isozyme (1.0)
# Protocol: Inactivation kinetic parameters were determined by incubating PAD1, 2, or 4 (2.0 μM) or PAD3 (5.0 μM) in a pre-warmed (10 min; 37° C.) inactivation mixture (50 mM HEPES, 10 mM CaCl2, and 2 mM DTT, pH 7.6, with a final volume of 60 μL) containing various concentrations of inhibitor. […] After 15 min, reactions were quenched in liquid nitrogen and citrulline production quantified using the COLDER assay. […]
The label depends only on Fold PAD1 Selectivity: true if it is at least 10 fold, false if it is smaller.

The following molecules have reported results that may help.
chemical_structure=COc1ccc2[nH]c([C@H](CCCNC(=N)CF)NC(=O)c3cccc4c3C(=O)NC4)nc2c1 answer_label=true
chemical_structure=COc1cccc2c1nc([C@H](CCCNC(=N)CCl)NC(=O)c1cccc3c1C(=O)N(C(C)C)C3)n2C answer_label=false
chemical_structure=CCn1c([C@H](CCCNC(=N)CF)NC(=O)c2ccccc2C(=O)OC(C)(C)C)nc2ccccc21 answer_label=false
chemical_structure=CCn1c([C@H](CCCNC(=N)CCl)NC(=O)c2ccccc2C(=O)O)nc2ccccc21 answer_label=false
chemical_structure=COc1ccc2c(c1)nc([C@H](CCCNC(=N)CF)NC(=O)c1cccc3c1C(=O)NC3)n2C answer_label=true
chemical_structure=CCN1Cc2cccc(C(=O)N[C@@H](CCCNC(=N)CCl)c3nc4ccccc4n3C(C)C)c2C1=O answer_label=true

Has COc1cccc2c1nc([C@H](CCCNC(=N)CCl)NC(=O)c1ccc(-c3ccccc3)cc1)n2C a recorded Fold PAD1 Selectivity greater than or equal to 10 fold?
false

Quick one: N=C(CCl)NCCC[C@H](NC(=O)c1ccccc1)c1nc2ccccc2[nH]1
true

Request: CCN1Cc2cccc(C(=O)N[C@@H](CCCNC(=N)CCl)c3nc4cc(OC)ccc4n3C)c2C1=O
true

Then N=C(CCl)NCCC[C@H](NC(=O)c1ccccc1C(=O)O)c1nc2ccccc2[nH]1 ?
false

Another: COc1cccc2c1nc([C@H](CCCNC(=N)CCl)NC(=O)c1cccc3c1C(=O)N(C1CC1)C3)n2C
false

Every entry's value here was drawn from patent US11208386B2.
